meta.source: ChEMBL document CHEMBL1649328

Each entry below carries its recorded IC50.
# System: Influenza A virus
# experimental-protocol: Antiviral activity against influenza A (A/Washington/10/2008 (H1N1)) virus after 16 to 18 hrs by fetuin substrate based colorimetric assay
# Type: functional, organism-based
Write the answer as a number in nM, unit excluded.

compound	unit	IC50
CO[C@@H]([C@@H]1OC(C(=O)O)=C[C@H](NC(=N)N)[C@H]1NC(C)=O)[C@H](O)CO	nM	0.79
C/C=C\[C@@H]1C[C@H](C(=O)O)N[C@H]1[C@@H](NC(C)=O)[C@](C)(CCC)OC	nM	1.03

Next:
Give the reported IC50 for CCC(CC)[C@H](NC(C)=O)[C@@H]1[C@H](O)[C@@H](C(=O)O)C[C@H]1NC(=N)N [PERAMIVIR ANHYDROUS] (system: Influenza A virus). 0.75
